- Tested on: Monocotyledonous and dicotyledonous test plants
- method-description: Example B1: herbicidal action prior to emergence (pre-emergence), 500 g/ha
- Type: in vivo
- settings: Echinochloa crus-galli (barnyard grass), 13 days after application, 0 = no damage, 100 = plants completely dead
Would you mind telling me the reported ECHCG herbicidal effect (visual assessment, percentage scale) of each entry?
// return numeric value only (unit: %, not printed)

Request the reported ECHCG herbicidal effect (visual assessment, percentage scale) associated with CCOc1c(CS(=O)(=O)c2ncc(Br)s2)c(C(F)(F)F)nn1C
90

Request the reported ECHCG herbicidal effect (visual assessment, percentage scale) associated with Cn1nc(C(F)(F)F)c(CS(=O)(=O)c2ncc(Br)s2)c1Cl
95

Request the reported ECHCG herbicidal effect (visual assessment, percentage scale) associated with Cn1nc(C(F)(F)F)c(C(F)S(=O)(=O)c2ncc(Cl)s2)c1Cl (racemic)
100

Request the reported ECHCG herbicidal effect (visual assessment, percentage scale) associated with Cn1nc(C(F)(F)F)c(C(Cl)S(=O)(=O)c2ncc(Cl)s2)c1Cl (racemic)
95

Request the reported ECHCG herbicidal effect (visual assessment, percentage scale) associated with Cn1nc(C(F)(F)F)c(C[S+]([O-])c2ncc(Cl)s2)c1F (racemic)
95

Request the reported ECHCG herbicidal effect (visual assessment, percentage scale) associated with Cn1nc(C(F)(F)F)c(CS(=O)(=O)c2ncc(Br)s2)c1OCC(F)(F)F
95

Request the reported ECHCG herbicidal effect (visual assessment, percentage scale) associated with Cn1nc(C(F)(F)F)c(CS(=O)(=O)c2ncc(Cl)s2)c1OC(F)F
95

Request the reported ECHCG herbicidal effect (visual assessment, percentage scale) associated with Cn1nc(C(F)(F)F)c(C[S+]([O-])c2ncc(Br)s2)c1OCC(F)F (racemic)
95

Request the reported ECHCG herbicidal effect (visual assessment, percentage scale) associated with COCCOc1c(C[S+]([O-])c2ncc(Cl)s2)c(C(F)(F)F)nn1C (racemic)
70

Request the reported ECHCG herbicidal effect (visual assessment, percentage scale) associated with Cn1nc(C(F)(F)F)c(C(F)(Cl)S(=O)(=O)c2ncc(Cl)s2)c1OCC(F)(F)F (racemic)
95

Request the reported ECHCG herbicidal effect (visual assessment, percentage scale) associated with Cn1nc(C(F)(F)F)c(C(F)(F)S(=O)(=O)c2ncc(Br)s2)c1OCC(F)(F)F
95

Request the reported ECHCG herbicidal effect (visual assessment, percentage scale) associated with Cn1nc(C(F)(F)F)c(C(F)(Cl)S(=O)(=O)c2ncc(Cl)s2)c1Cl (racemic)
95

Request the reported ECHCG herbicidal effect (visual assessment, percentage scale) associated with Cn1nc(C(F)(F)F)c(CSc2ncc(Cl)s2)c1OCC(F)(F)F
80

Request the reported ECHCG herbicidal effect (visual assessment, percentage scale) associated with Cn1nc(C(F)(F)F)c(C(Cl)S(=O)(=O)c2ncc(Cl)s2)c1OCC(F)(F)F (racemic)
95

Request the reported ECHCG herbicidal effect (visual assessment, percentage scale) associated with Cn1nc(C(F)(F)F)c(C[S+]([O-])c2ncc(Br)s2)c1Cl (racemic)
95

Request the reported ECHCG herbicidal effect (visual assessment, percentage scale) associated with Cn1nc(C(F)(F)F)c(C[S+]([O-])c2nccs2)c1OCC(F)(F)F (racemic)
95

Request the reported ECHCG herbicidal effect (visual assessment, percentage scale) associated with Cn1nc(C(F)(F)F)c(C[S+]([O-])c2ncc(Br)s2)c1OCC(F)(F)F (centres unmarked)
95

Request the reported ECHCG herbicidal effect (visual assessment, percentage scale) associated with CCOc1c(C[S+]([O-])c2ncc(Br)s2)c(C(F)(F)F)nn1C (racemic)
95

Request the reported ECHCG herbicidal effect (visual assessment, percentage scale) associated with Cn1nc(C(F)(F)F)c(CSc2ncc([N+](=O)[O-])s2)c1OCC(F)(F)F
95

Request the reported ECHCG herbicidal effect (visual assessment, percentage scale) associated with Cn1nc(C(F)(F)F)c(CS(=O)(=O)c2ncc(Cl)s2)c1Cl
95

Request the reported ECHCG herbicidal effect (visual assessment, percentage scale) associated with Cn1nc(C(F)(F)F)c(CS(=O)(=O)c2ncc(Br)s2)c1F
95

Request the reported ECHCG herbicidal effect (visual assessment, percentage scale) associated with Cn1nc(C(F)(F)F)c(C(F)S(=O)(=O)c2ncc(Br)s2)c1Cl (racemic)
80

Request the reported ECHCG herbicidal effect (visual assessment, percentage scale) associated with Cc1cnc([S+]([O-])Cc2c(C(F)(F)F)nn(C)c2OCC(F)(F)F)s1 (racemic)
0

Request the reported ECHCG herbicidal effect (visual assessment, percentage scale) associated with Cn1nc(C(F)(F)F)c(CSc2ncc(Br)s2)c1OCC(F)(F)F
95

Request the reported ECHCG herbicidal effect (visual assessment, percentage scale) associated with Cn1nc(C(F)(F)F)c(CS(=O)(=O)c2ncc(Br)s2)c1OCC(F)F
95

Request the reported ECHCG herbicidal effect (visual assessment, percentage scale) associated with COCCOc1c(CS(=O)(=O)c2ncc(Cl)s2)c(C(F)(F)F)nn1C
95

Provenance of the data: patent US20090048112A1
